Give measured MIC for each item. Keep answers brief.
System: Mycobacterium intracellulare
Measurement description: Antimycobacterial activity against Mycobacterium intracellular (ATCC 1954 E-3)
Format: functional
Answer with a number only, understood to be in µg/mL.

Looking up `CO[C@H]1[C@@H](O)[C@H](n2ccc(=O)[nH]c2=O)O[C@@H]1[C@@H](O[C@H]1OC(C(=O)Nc2ccc(F)c(F)c2)=C[C@H](O)[C@@H]1O)C(N)=O` , I found its MIC recorded as 0.5

Please fill in: MIC reported for `CO[C@H]1[C@@H](O)[C@H](n2ccc(=O)[nH]c2=O)O[C@@H]1[C@@H](O[C@H]1OC(C(=O)Nc2cccc(C)c2)=C[C@H](O)[C@@H]1O)C(N)=O` = 1

The reported value for `CO[C@H]1[C@@H](O)[C@H](n2ccc(=O)[nH]c2=O)O[C@@H]1[C@@H](O[C@H]1OC(C(=O)N[C@H]2CCCCNC2=O)=C[C@H](O)[C@@H]1O)C(N)=O` in terms of MIC is 8

MIC recorded for this compound, `CO[C@H]1[C@@H](O)[C@H](n2ccc(=O)[nH]c2=O)O[C@@H]1[C@@H](O[C@H]1OC(C(=O)Nc2ccc(Cl)cc2)=C[C@H](O)[C@@H]1O)C(N)=O` , is 2

Entry `NNC(=O)c1ccncc1` , MIC reported as 8

The reported MIC of the compound `CO[C@H]1[C@@H](O)[C@H](n2ccc(=O)[nH]c2=O)O[C@@H]1[C@@H](O[C@H]1OC(C(=O)Nc2cccc(F)c2)=C[C@H](O)[C@@H]1O)C(N)=O` was 2

Documented MIC of `CO[C@H]1[C@@H](O)[C@H](n2ccc(=O)[nH]c2=O)O[C@@H]1[C@@H](O[C@H]1OC(C(=O)Nc2ccc(Br)cc2)=C[C@H](O)[C@@H]1O)C(N)=O` : 0.5

# compound `CO[C@H]1[C@@H](O)[C@H](n2ccc(=O)[nH]c2=O)O[C@@H]1[C@@H](O[C@H]1OC(C(=O)N[C@H]2CCC[C@@H](C)NC2=O)=C[C@H](O)[C@@H]1O)C(N)=O` ; its MIC = 4

Per the records, this compound ( `CO[C@H]1[C@@H](O)[C@H](n2ccc(=O)[nH]c2=O)O[C@@H]1[C@@H](O[C@H]1OC(C(=O)Nc2ccc(F)cc2)=C[C@H](O)[C@@H]1O)C(N)=O` ) has MIC equal to 2

Sure, the documented MIC for `CO[C@H]1/C=C/O[C@@]2(C)Oc3c(C)c(O)c4c(O)c(c(/C=N/N5CCN(C)CC5)c(O)c4c3C2=O)NC(=O)/C(C)=C\C=C\[C@H](C)[C@H](O)[C@@H](C)[C@@H](O)[C@@H](C)[C@H](OC(C)=O)[C@@H]1C` is 0.125

Form field MIC, entry `CO[C@H]1[C@@H](O)[C@H](n2ccc(=O)[nH]c2=O)O[C@@H]1[C@@H](O[C@H]1OC(C(=O)Nc2ccccc2)=C[C@H](O)[C@@H]1O)C(N)=O` : 4

Data provenance: ChEMBL document CHEMBL1136174
